B1: CPEB3 Ribozyme (parent)
chain: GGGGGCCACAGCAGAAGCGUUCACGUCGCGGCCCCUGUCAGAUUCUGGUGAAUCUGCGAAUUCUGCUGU

Variants of: B1
Assay: self-cleavage, relative activity (ratio to wild type); higher = more cleavage; co-transcriptional
PROPERTY_NAME: self-cleavage
Reply with just the number.

Which value of self-cleavage has been reported for C54G C57A in the records?
0.348

And what about the variant C24G U62G ?
0.203

And what about the variant C29G U38G ?
0.207

And what about the variant U21G C32G ?
0.189

And what about the variant A13U G28C ?
0.125

And what about the variant A40U C66G ?
0.325

As a next step, examine the variant that follows.
Which value of self-cleavage has been reported for G31U C33G in the records?
0.2
